Ref: patent US20230183336A1

Target: T1, recombinant human LRP6-Fc chimera (human, UniProt O75581 20-1370)
T1 construct: extracellular domain; also called ECD of human LRP6; not shown: Fc part of the chimera
T1 sequence (looked up): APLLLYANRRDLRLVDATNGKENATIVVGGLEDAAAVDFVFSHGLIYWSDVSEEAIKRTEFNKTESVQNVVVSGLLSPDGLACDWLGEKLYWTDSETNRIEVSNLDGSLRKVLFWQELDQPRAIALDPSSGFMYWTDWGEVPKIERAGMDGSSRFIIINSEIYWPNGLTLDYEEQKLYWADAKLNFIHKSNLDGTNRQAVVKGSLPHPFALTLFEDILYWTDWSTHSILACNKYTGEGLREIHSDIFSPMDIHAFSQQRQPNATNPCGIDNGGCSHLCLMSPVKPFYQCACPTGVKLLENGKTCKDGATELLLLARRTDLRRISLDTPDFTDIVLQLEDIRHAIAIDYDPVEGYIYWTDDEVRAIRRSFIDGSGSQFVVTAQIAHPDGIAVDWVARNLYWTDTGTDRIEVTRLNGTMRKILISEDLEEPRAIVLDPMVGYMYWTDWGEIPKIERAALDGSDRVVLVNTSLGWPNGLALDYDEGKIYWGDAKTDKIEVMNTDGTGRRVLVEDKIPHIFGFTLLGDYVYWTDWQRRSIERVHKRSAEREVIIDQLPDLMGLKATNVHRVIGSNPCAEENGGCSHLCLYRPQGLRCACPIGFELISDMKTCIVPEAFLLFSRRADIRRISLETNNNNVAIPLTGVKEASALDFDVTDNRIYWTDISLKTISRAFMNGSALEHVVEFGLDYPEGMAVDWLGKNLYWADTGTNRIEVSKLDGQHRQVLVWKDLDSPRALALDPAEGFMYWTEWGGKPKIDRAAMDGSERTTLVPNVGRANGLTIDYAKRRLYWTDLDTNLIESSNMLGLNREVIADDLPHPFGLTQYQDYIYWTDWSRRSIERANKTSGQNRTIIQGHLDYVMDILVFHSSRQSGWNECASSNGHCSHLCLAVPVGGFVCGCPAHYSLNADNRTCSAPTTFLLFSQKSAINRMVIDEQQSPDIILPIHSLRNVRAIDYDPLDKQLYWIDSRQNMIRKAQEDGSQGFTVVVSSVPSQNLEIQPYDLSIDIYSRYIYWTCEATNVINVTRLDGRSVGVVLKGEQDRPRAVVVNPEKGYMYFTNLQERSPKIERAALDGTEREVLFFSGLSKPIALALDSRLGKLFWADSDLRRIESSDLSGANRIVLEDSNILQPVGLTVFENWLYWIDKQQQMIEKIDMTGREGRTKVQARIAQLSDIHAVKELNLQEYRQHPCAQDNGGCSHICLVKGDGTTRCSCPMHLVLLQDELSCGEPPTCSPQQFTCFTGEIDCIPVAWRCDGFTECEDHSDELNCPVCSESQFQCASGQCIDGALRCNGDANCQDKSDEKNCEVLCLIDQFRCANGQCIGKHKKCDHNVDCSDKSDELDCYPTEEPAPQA
Assay: multipoint competitive ELISA, IgG1; varied competitor printed as recombinant human LRP6-Fc chimera, while paragraph 283 says 'the recombinant antigen'
Reported IC50 values for a set of binders
Answer with a number only, understood to be in nM.

I have this binder here, LRP5-H5 (antibody, V domains shown, Fab-phage in the screen) VH: EVQLVESGGGLVQPGGSLRLSCAASGFNLSYSSIHWVRQAPGKGLEWVASISSSYGSTSYADSVKGRFTISADTSKNTAYLQMNSLRAEDTAVYYCARGYWAIDYWGQGTLVTVSS VL: DIQMTQSPSSLSASVGDRVTITCRASQSVSSAVAWYQQKPGKAPKLLIYSASSLYSGVPSRFSGSRSGTDFTLTISSLQPEDFATYYCQQPVGHYGYPITFGQGTKVEIKR , and I need its recorded IC50.
4.44

Returns the measured IC50 for the input binder. Input: LRP5-D9 (antibody, V domains shown, Fab-phage in the screen) VH: EVQLVESGGGLVQPGGSLRLSCAASGFNISYSYIHWVRQAPGKGLEWVASIYSSYGYTYYADSVKGRFTISADTSKNTAYLQMNSLRAEDTAVYYCARHYSYFFYAMDYWGQGTLVTVSS VL: DIQMTQSPSSLSASVGDRVTITCRASQSVSSAVAWYQQKPGKAPKLLIYSASSLYSGVPSRFSGSRSGTDFTLTISSLQPEDFATYYCQQASYSPITFGQGTKVEIKR
25.1

Recorded IC50 for LRP5-G11 (antibody, V domains shown, Fab-phage in the screen) VH: EVQLVESGGGLVQPGGSLRLSCAASGFNISYSYIHWVRQAPGKGLEWVASIYPSYGYTYYADSVKGRFTISADTSKNTAYLQMNSLRAEDTAVYYCARAAPYYGYYYSYAMDYWGQGTLVTVSS VL: DIQMTQSPSSLSASVGDRVTITCRASQSVSSAVAWYQQKPGKAPKLLIYSASSLYSGVPSRFSGSRSGTDFTLTISSLQPEDFATYYCQQGVSLITFGQGTKVEIKR , please?
25.1

I have this binder here, LRP5-G9 (antibody, V domains shown, Fab-phage in the screen) VH: EVQLVESGGGLVQPGGSLRLSCAASGFNISYSYIHWVRQAPGKGLEWVASIYSSYGYTYYADSVKGRFTISADTSKNTAYLQMNSLRAEDTAVYYCARWGAYHSSGYGMDYWGQGTLVTVSS VL: DIQMTQSPSSLSASVGDRVTITCRASQSVSSAVAWYQQKPGKAPKLLIYSASSLYSGVPSRFSGSRSGTDFTLTISSLQPEDFATYYCQQSSSSPITFGQGTKVEIKR , and I need its recorded IC50.
26.4

What value of IC50 has been reported for the following binder? LRP5-A7 (antibody, V domains shown, Fab-phage in the screen; also called LRP5-47) VH: EVQLVESGGGLVQPGGSLRLSCAASGFNLSYSSMHWVRQAPGKGLEWVASIYPYYGYTYYADSVKGRFTISADTSKNTAYLQMNSLRAEDTAVYYCARHGAMDYWGQGTLVTVSS VL: DIQMTQSPSSLSASVGDRVTITCRASQSVSSAVAWYQQKPGKAPKLLIYSASSLYSGVPSRFSGSRSGTDFTLTISSLQPEDFATYYCQQAWGWGLFTFGQGTKVEIKR
4.68

Look up IC50: LRP5-H9 (antibody, V domains shown, Fab-phage in the screen) VH: EVQLVESGGGLVQPGGSLRLSCAASGFNIYSYYIHWVRQAPGKGLEWVASIYSYYGYTYYADSVKGRFTISADTSKNTAYLQMNSLRAEDTAVYYCARSYPAMDYWGQGTLVTVSS VL: DIQMTQSPSSLSASVGDRVTITCRASQSVSSAVAWYQQKPGKAPKLLIYSASSLYSGVPSRFSGSRSGTDFTLTISSLQPEDFATYYCQQSSYSPITFGQGTKVEIKR
37.5
